assay: CCTE_Shafer_MEA_dev_network_spike_duration_std: CCTE's Neural Network Formation Assay for Standard Deviation of Network Spike Duration, Shafer Lab (AID 2284052);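 further: area under curve of spike duration SD across recording days 5 to 12; hits are decreases in network spike duration SD versus DMSO vehicle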
Active and inactive are the calls of the source. How the source made its calls: active means hit-call score of the fitted dose curve at least 0.9, where 1 is the maximum; inactive means score below 0.9.
Give your call using only these classes: active, inactive

Given O=S1OCC2C(CO1)C1(Cl)C(Cl)=C(Cl)C2(Cl)C1(Cl)Cl (centres undefined) , state the outcome it received in this test.
inactive

Write down the call the test reported for this molecule. Item: "CNC(=O)CSP(=S)(OC)OC"
inactive

Answer briefly: the call reported for "Oc1cc(Cl)ccc1Oc1ccc(Cl)cc1Cl" in this assay.
active

Entry "O=C(O)COc1ccc(Cl)cc1Cl" : call = ?
inactive

Status in this test for CC1(c2ccc(Oc3ccccc3)cc2)OC(=O)N(Nc2ccccc2)C1=O (centres undefined) ?
active

Hey, what did the test say about "O=[N+]([O-])/N=C1\NCCN1Cc1ccc(Cl)nc1" ?
inactive

Outcome? "CC(C)N(C(=O)COc1nnc(C(F)(F)F)s1)c1ccc(F)cc1"
inactive

Please share the test call associated with "CCC(C)(C)C(=O)OC1=C(c2ccc(Cl)cc2Cl)C(=O)OC12CCCCC2" .
inactive

Per the records of this test, what outcome belongs to "COP(=S)(OC)Oc1ccc([N+](=O)[O-])cc1" ?
inactive

###

assay: ACEA_ER_80hr: ACEA Biosciences xCELLigence Real-Time Cell Analysis on Estrogen Receptor Agonism for Proliferation (AID 2282667); details: T47D proliferation, impedance (xCELLigence), 80 h
Records with an inconclusive call do not appear. Calls of active or inactive are those of the source. How the source made its calls: active means hit-call score of the fitted dose curve at least 0.9, where 1 is the maximum; inconclusive means response in the unintended direction; inactive means score below 0.9.

# GIVEN_SMILES, outcome
data = [
    ("O=[N+]([O-])/N=C1\\NCCN1Cc1ccc(Cl)nc1", "inactive"),
    ("Clc1ccccc1-c1nnc(-c2ccccc2Cl)nn1", "inactive"),
    ("COP(=O)(OC)OC=C(Cl)Cl", "inactive"),
]

###

experiment: APR_HepG2_MitoticArrest_24hr: Apredica 24-hour HepG2 Assay for Mitotic Arrest (AID 2282910); settings: high-content imaging, actives raise or lower the signal
The source made the active and inactive calls. How the source made its calls: active means hit-call score of the fitted dose curve at least 0.9, where 1 is the maximum; inactive means score below 0.9.
The reply should be one of these categories: 1 (yes) (active), 0 (no) (inactive)

What call does the record list for "CCCN(CCOc1c(Cl)cc(Cl)cc1Cl)C(=O)n1ccnc1" ?
0 (no)

Tell me the recorded outcome of this test for ClC1C(Cl)C(Cl)C(Cl)C(Cl)C1Cl (stereo unspecified) .
0 (no)

Hi, sorry to bother you, what did the test record for "CNC(=O)/C=C(\C)OP(=O)(OC)OC" ?
0 (no)

Per the records of this test, what outcome belongs to CC1(c2ccc(Oc3ccccc3)cc2)OC(=O)N(Nc2ccccc2)C1=O (stereo unspecified) ?
1 (yes)

What is the recorded call for this compound in the test? "CCOCN(C(=O)CCl)c1c(C)cccc1CC"
1 (yes)

Record lookup: outcome of this test for CC(C)(C)C(O)C(Oc1ccc(Cl)cc1)n1cncn1 (stereo unspecified) ?
0 (no)

// return assay outcome for "CN1CSC(=S)N(C)C1"
1 (yes)

// return assay outcome for "O=C(O)C(F)(F)C(F)(F)C(F)(F)C(F)(F)C(F)(F)C(F)(F)C(F)(F)F"
0 (no)

Outcome logged for "C#CCN1C(=O)COc2cc(F)c(N3C(=O)C4=C(CCCC4)C3=O)cc21" in this assay:
0 (no)

How was "O=[N+]([O-])c1c(Cl)c(Cl)c(Cl)c(Cl)c1Cl" classified in this test?
0 (no)

What is the recorded call for this compound in the test? "CNC(=O)Oc1cccc(N=CN(C)C)c1"
0 (no)

Record request — test call for "[2H]C1([2H])[n+]2ccccc2-c2cccc[n+]2C1([2H])[2H]"
0 (no)

Tell me the assay call for "CNC(=O)Oc1ccccc1OC(C)C" please.
0 (no)

Given "Cc1cc(C)nc(NC(=O)NS(=O)(=O)c2ccccc2C(=O)OC2COC2)n1" , state the outcome it received in this test.
0 (no)

Record lookup: outcome of this test for "OCCOc1ccccc1" ?
0 (no)

Can you look up the reported call for "COC(=O)c1ccccc1S(=O)(=O)NC(=O)N(C)c1nc(C)nc(OC)n1" for me?
0 (no)

Status in this test for CC[C@H](C)[C@H]1O[C@]2(C=C[C@@H]1C)C[C@@H]1C[C@@H](C/C=C(\C)[C@@H](O[C@H]3C[C@H](OC)[C@@H](O[C@H]4C[C@H](OC)[C@@H](O)[C@H](C)O4)[C@H](C)O3)[C@@H](C)/C=C/C=C3\CO[C@@H]4[C@H](O)C(C)=C[C@@H](C(=O)O1)[C@]34O)O2 (tested in a mixture with another compound) ?
1 (yes)

Hi, sorry to bother you, what did the test record for "O=S(=O)(O)C(F)(F)C(F)(F)C(F)(F)C(F)(F)C(F)(F)C(F)(F)C(F)(F)C(F)(F)F" ?
1 (yes)

Status in this test for "N#Cc1c(Cl)c(Cl)c(Cl)c(C#N)c1Cl" ?
0 (no)

Outcome? "CCN(CC)C(=O)SCc1ccc(Cl)cc1"
0 (no)

Outcome logged for CCC(C)Nc1c([N+](=O)[O-])cc(C(C)(C)C)cc1[N+](=O)[O-] (stereo unspecified) in this assay:
0 (no)
